System: COLO 205 colon
Experiment: NCI-60 one-dose screen, 48 h
Details: 10 µM unless noted
This is part of a sample that, as a whole, favours compounds with a hit. Of some 83,000 tested, about 20% had one in any assay. The source made the active and inactive calls. How the source made its calls: active means growth percent below 10; inactive means the rest.
Give one outcome, nothing more. List: TRUE (active), FALSE (inactive)

Completed entries (count: 2):
Answer briefly: the call reported for C=CCN(/C=C/CN(CC=C)CC=C)CC=C in this assay.
FALSE

# fetch the recorded call for COc1cc(Cl)cc(-c2nn(-c3cccc(NC(=O)c4cc(C(F)(F)F)cc(C(F)(F)F)c4)c3)cc2-c2ccncc2)c1 here
FALSE

Next:
Could you please tell me the result logged for COc1ccc(-c2nc3sc4c(c3c(=O)[nH]2)CCCCCC4)cc1 in this assay?
FALSE

// param item: COc1ccc2nc(N/N=C(\C)c3ccccn3)cc(C)c2c1 ; yields the recorded call
TRUE

Check the results log: what was the call for NS(=O)(=O)c1ccc(-n2ncc3c(SCc4ccccc4)ncnc32)cc1 ?
FALSE

What call does the record list for COc1cc(-c2nc3nc4sc(C)c(C)c4c(=O)n3[nH]2)cc(OC)c1OC ?
FALSE

Which result was noted for this compound in the test: OCc1n(Cc2ccc3ccccc3c2)cc[n+]1Cc1ccc2ccccc2c1
FALSE

# outcome recorded in this test, key = CSc1nc2nc3c(c(-c4ccc(C)cc4)c2c(=O)[nH]1)CN(C)C/C3=C\c1ccc(C)cc1
FALSE

Name the outcome recorded for CS(=O)(=O)N1CCN(Cc2cc3nc(-c4cccc5[nH]ncc45)nc(N4CCOCC4)c3s2)CC1 (tested in a mixture with another compound) in the assay.
TRUE

Hi, sorry to bother you, what did the test record for COc1cccc(/C=N\NC(=O)c2ccncc2)c1O ?
FALSE

Query: recorded result category for O=c1ncc(-c2ccc(C(F)(F)F)cc2)c(NC2CCCCCC2)[nH]1 in this test
FALSE

Which outcome was assigned to [N-]=[N+]=NCc1ncc(-c2ccc(C(F)(F)F)cc2)c(NC2CCCCCC2)n1 in this test?
FALSE

----------
Tested on: NCI-H522 lung
Experiment: NCI-60 one-dose screen, 48 h
Conditions: 10 µM
This is part of a sample that, as a whole, favours compounds with a hit. Of some 83,000 tested, about 20% had one in any assay. Active and inactive are the calls of the source. How the source made its calls: active means growth percent below 10; inactive means the rest.
Write down one outcome, taken from active, inactive

Below, 3 compounds whose answers are already recorded.
Each compound tested received a call. Report the one for O=C(N/N=C/c1cccc([N+](=O)[O-])c1)c1ccc(Br)o1 .
inactive

Write down the call the test reported for this compound. Item: CSc1nc(Nc2ccc(S(=O)(=O)Nc3ccon3)cc2)c(C#N)c(-c2ccc(Cl)cc2)n1
inactive

Look up the recorded call for Nc1nc(SCc2cccnc2)c2ncn(C3OC(CO)C(O)C3O)c2n1 (stereo not drawn) in this test.
inactive

Further cases:
I would be grateful if you could indicate the recorded call for O=C(/C=C/c1ccc([N+](=O)[O-])cc1)c1ccc2c3c(cccc13)CC2 .
inactive

Name the outcome recorded for COc1cc(/C=N/OC(=O)Nc2ccccc2)cc(OC)c1OC in the assay.
inactive

Please indicate how the test categorized O=C(c1ccccc1)c1ccc(Oc2ccc([N+](=O)[O-])cc2[N+](=O)[O-])cc1 .
active

Outcome logged for CCOC(=O)c1sc(NC(=O)COc2ccc(/C=C3\CCc4cc(OC)ccc4C3=O)cc2)nc1C in this assay:
active

Test call, this compound: Cc1ccc(-c2csc(N)n2)cc1
inactive

Kindly provide the recorded test outcome for the following compound: COc1cccc2c1C(=O)c1c(O)c3c(c(O)c1C2=O)C[C@@](O)(C(C)=O)C[C@@H]3O[C@H]1C[C@H](N)[C@H](O)[C@H](C)O1
active

Returns: the outcome recorded for Nc1ccc(Oc2c(F)c(F)c(Oc3ccc(N)cc3)c(F)c2F)cc1 in this assay.
inactive

Hey, just so you know, these numbers are from PubChem BioAssay (NCI).
